# TARGET_DESC: KRAS G12S (Homo sapiens, UniProt P01116, G12S)
# Sequence (P01116 1-188 isoform P01116-2 G12S): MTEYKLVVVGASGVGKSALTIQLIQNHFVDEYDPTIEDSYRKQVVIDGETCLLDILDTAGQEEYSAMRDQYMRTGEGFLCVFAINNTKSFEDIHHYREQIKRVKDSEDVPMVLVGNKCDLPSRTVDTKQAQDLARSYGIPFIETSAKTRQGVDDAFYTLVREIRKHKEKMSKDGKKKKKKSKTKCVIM
# ASSAY_SUMMARY: HTRF KRAS-SOS1 interaction assay, KRAS G12S
# CONDITION_SET: binned ≤2 μM / >2 μM, read-out: Inhibition of KRAS G12S (IC50)
pIC50: −log10 of the molar value.
EXPERIMENTAL_READOUT: pIC50

Check out these entries, answers already filled in.
INSERT INTO measurements (compound, data_value) VALUES
  ('C[C@H](c1cccnc1N)N1CCOc2c(C(F)(F)F)c(-c3cc(F)c(F)c4sc(N)c(C#N)c34)c(F)c3nc(OC[C@@]45CCCN4C[C@H](F)C5)nc1c23 (single isomer, unassigned) [Compound 863]', '< 5.70'),
  ('C=Cc1c(-c2ccc(F)c3sc(N)c(C#N)c23)c(F)c2nc(OC[C@@]34CCCN3C[C@H](F)C4)nc3c2c1OCCN3[C@H](C)c1cccnc1N (single isomer, unassigned)', '≥ 5.70'),
  ('N#Cc1c(N)sc2c(F)ccc(-c3c(C(F)(F)F)c4c5c(nc(OC[C@@]67CCCN6C[C@H](F)C7)nc5c3F)N([C@H](CC3CC(F)(F)C3)c3cccnc3N)CCO4)c12 (single isomer, unassigned)', '≥ 5.70');

Next item in the queue.
*Q* Give the reported value of pIC50 for this record: N#Cc1c(N)sc2c(F)ccc(-c3c(C(F)(F)F)c4c5c(nc(OC[C@@]67CCCN6C[C@H](F)C7)nc5c3F)N([C@H](CC3CCOCC3)c3cccnc3N)CCO4)c12 (single isomer, unassigned)
*A* ≥ 5.70

Cited source: patent US12668600B2
